Provenance of the data: patent US6344321

Target: HGF (hepatocyte growth factor/scatter factor) (UniProt P14210;P14210 P14210:32-494,P14210:495-728)
Sequence (P14210 32-494, chain 1 of 2): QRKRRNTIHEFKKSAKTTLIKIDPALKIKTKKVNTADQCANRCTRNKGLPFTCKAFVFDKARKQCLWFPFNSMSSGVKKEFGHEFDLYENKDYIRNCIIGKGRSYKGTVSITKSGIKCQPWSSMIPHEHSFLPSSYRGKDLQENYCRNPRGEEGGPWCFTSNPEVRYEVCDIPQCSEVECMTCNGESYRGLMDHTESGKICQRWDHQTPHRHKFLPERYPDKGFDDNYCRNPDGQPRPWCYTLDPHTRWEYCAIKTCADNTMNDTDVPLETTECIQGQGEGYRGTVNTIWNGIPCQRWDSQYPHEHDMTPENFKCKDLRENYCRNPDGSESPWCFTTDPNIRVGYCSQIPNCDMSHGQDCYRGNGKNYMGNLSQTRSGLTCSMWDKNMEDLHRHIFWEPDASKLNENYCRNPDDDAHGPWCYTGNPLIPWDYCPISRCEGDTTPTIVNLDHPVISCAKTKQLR
Sequence (P14210 495-728, chain 2 of 2): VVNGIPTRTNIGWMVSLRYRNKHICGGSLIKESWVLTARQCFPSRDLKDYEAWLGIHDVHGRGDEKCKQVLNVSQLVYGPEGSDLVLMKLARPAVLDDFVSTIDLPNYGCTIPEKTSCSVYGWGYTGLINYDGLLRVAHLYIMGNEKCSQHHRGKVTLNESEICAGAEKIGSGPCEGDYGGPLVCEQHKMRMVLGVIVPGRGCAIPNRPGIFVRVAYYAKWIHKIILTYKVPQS
Assay: filter; HBSMC, 37C; table cites SEQ 15, which is a template in the listing
Settings: tags: R&D Systems
PROPERTY_MEASURED: Kd

{"BINDER": "8-117 (ssRNA, 2'-F pyrimidines) RNA: GGGAGGACGAUGCGGUCCCAAGUUUCAGGGCGUUUCUUCCUCGUCCAGACGACUCGCCCGA", "PROPERTY_MEASURED": "Kd", "OBSERVED": "0.13 nM"}
